tested on: Fer (mouse); assay: phosphorylation enrichment, bacterial display (enrichment ratio); higher = better substrate or ligand; peptides without Tyr show the background
Decide by phosphorylation enrichment: equal to or exceeding 0.5 means yes, less means no.

Worked examples, 4 sequences total:
1) QAEEWYFGKMG [YES1_Y159]; yes
2) ENAGYYFRVSA; no
3) LNPLIYTLKNA [OR4C46_Y285]; yes
4) LFLASYCIGGG [UBD_Y161_C160S]; yes

Now look at this one.
Query :: Given NTDETYCIDNK [TUBB3_Y200_E205K] , state whether its phosphorylation enrichment is at least 0.5.
Result :: yes

###

target: FGFR3 (UniProt P22607); experiment: phosphorylation enrichment, bacterial display (enrichment ratio); higher = better substrate or ligand; peptides without Tyr show the background
Sequence (P22607 whole entry, looked up): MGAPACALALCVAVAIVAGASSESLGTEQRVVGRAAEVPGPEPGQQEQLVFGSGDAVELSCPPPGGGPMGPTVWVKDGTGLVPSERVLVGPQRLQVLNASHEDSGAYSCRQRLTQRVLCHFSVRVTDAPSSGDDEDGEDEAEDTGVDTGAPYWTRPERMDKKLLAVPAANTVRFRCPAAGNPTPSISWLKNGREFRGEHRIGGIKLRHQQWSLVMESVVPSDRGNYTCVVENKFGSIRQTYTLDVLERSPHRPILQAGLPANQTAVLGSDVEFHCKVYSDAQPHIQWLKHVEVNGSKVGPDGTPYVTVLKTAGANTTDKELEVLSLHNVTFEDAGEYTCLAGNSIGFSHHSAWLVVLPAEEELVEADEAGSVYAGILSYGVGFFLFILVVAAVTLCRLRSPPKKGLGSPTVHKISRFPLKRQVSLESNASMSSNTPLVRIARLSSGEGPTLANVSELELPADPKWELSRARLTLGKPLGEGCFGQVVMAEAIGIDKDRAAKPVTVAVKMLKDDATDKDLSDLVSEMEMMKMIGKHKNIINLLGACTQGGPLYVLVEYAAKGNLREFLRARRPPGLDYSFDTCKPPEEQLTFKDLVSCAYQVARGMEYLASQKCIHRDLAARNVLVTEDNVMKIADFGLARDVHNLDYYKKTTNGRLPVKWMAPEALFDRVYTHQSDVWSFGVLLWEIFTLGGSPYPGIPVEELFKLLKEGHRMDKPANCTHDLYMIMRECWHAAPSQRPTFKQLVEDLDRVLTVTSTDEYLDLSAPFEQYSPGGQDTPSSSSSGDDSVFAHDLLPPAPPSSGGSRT
Decide by phosphorylation enrichment: equal to or exceeding 0.6 means t, less means f.

Worked examples, 5 sequences total:
1. PFSNSYENSLI [EPOR_Y489_P488S_YF]; t
2. KPGLKYVTYGN [GALNTL5_Y404]; f
3. AEPPDYSPVTQ [ADGRG2_Y285_H290Q]; t
4. DYYDLYGGEKF [PTPN11_Y66]; t
5. ADARMYGVLPW [PLP1_Y207]; f

Query :: Given QFQEKYKQMEQ [HCN4_Y531_V534M_YF] , state whether its phosphorylation enrichment is at least 0.6.
Result :: t

Query :: Given KDAGDYKCKAK [LRIT3_Y326] , state whether its phosphorylation enrichment is at least 0.6.
Result :: f

Query :: Given LKFAIYFEARE [LAMA2_Y1258_YF] , state whether its phosphorylation enrichment is at least 0.6.
Result :: t

###

target: EPHB1 (UniProt P54762); test: phosphorylation enrichment, bacterial display (enrichment ratio); higher = better substrate or ligand; peptides without Tyr show the background
Sequence (P54762 whole entry, looked up): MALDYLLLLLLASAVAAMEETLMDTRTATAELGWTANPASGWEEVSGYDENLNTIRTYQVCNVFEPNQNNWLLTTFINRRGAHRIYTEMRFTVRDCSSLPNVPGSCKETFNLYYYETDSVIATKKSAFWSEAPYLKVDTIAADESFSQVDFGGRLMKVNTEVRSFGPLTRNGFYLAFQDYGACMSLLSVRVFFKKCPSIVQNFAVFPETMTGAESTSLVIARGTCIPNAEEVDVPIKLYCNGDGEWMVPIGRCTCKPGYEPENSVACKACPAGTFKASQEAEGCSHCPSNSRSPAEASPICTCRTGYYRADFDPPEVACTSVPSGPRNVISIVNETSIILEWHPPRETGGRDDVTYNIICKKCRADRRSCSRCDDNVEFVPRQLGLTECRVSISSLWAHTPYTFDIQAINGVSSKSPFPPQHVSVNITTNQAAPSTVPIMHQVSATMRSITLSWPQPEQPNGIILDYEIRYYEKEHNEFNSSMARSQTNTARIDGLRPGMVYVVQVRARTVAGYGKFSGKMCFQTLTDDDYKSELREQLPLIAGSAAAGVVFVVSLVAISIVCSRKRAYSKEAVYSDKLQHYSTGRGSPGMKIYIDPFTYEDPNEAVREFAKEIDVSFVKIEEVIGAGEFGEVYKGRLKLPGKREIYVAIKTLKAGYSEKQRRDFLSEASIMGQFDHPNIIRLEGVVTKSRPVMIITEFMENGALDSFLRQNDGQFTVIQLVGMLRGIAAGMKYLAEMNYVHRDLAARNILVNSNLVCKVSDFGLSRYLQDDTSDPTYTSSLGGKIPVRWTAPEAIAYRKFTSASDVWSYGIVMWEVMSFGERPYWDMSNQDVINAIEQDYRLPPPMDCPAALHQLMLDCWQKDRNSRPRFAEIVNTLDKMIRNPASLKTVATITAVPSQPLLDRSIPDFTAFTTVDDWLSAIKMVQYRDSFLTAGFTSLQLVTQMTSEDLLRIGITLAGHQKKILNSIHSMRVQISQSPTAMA
Decide by phosphorylation enrichment: equal to or exceeding 0.5 means 1, less means 0.

Query :: Given KPLMPYMRFSR [SMARCE1_Y73_YF] , state whether its phosphorylation enrichment is at least 0.5.
Result :: 0

Query :: Given LRLFSYSTTIR [CYP7B1_Y365_S363F] , state whether its phosphorylation enrichment is at least 0.5.
Result :: 1

Query :: Given EAVLHYKHQNQ [MTOR_Y1804] , state whether its phosphorylation enrichment is at least 0.5.
Result :: 0

Query :: Given SLQSEYVHYGG [CDC14A_Y591] , state whether its phosphorylation enrichment is at least 0.5.
Result :: 1

###

test system: c-Abl (mouse); experiment: phosphorylation enrichment, bacterial display (enrichment ratio); higher = better substrate or ligand; peptides without Tyr show the background
# Lookup of reported phosphorylation enrichment keyed by entry

# annotated cases, reported phosphorylation enrichment shown
1. QKFMAYLSQGG [HLCS_Y236]; 0.446
2. NFDRIYIFHLR [MYOF_Y1137_V1136I_YF]; 0.993
3. SDGHEYIFVDP [PDGFRB_Y579_YF]; 0.573
4. TKFVAYIESQG [KDM4B_Y34_N29T_YF]; 0.64
5. HLDRSYSFSFS [PEAR1_Y890_R885H_YF]; 1.17

Just so you know, measured phosphorylation enrichment for IRRSSYEDSSL [HNF4A_Y144_T139I] came out at 0.824

Just so you know, measured phosphorylation enrichment for ILGRYYETSSI [PAX2_Y73_G76S] came out at 0.55

Just so you know, measured phosphorylation enrichment for ISHVAYLVLGK [TRRAP_Y892_R893L] came out at 0.588

Just so you know, measured phosphorylation enrichment for KLQKKYGPIFS [CYP17A1_Y60_YF] came out at 0.505

Just so you know, measured phosphorylation enrichment for NTDETYCIDNK [TUBB3_Y200_E205K] came out at 0.834

Just so you know, measured phosphorylation enrichment for DGNTRYSTFSE [TKTL1_Y318_D315N] came out at 0.746

Just so you know, measured phosphorylation enrichment for EWQQTYTYDSG [JUP_Y20] came out at 0.657

Just so you know, measured phosphorylation enrichment for TEAEPYFRSLR [NPHS1_Y1138_YF] came out at 0.758

Just so you know, measured phosphorylation enrichment for TYGVVYKARNK [CDK2_Y19] came out at 0.272

Just so you know, measured phosphorylation enrichment for RLKAKYPAATG [GLI3_Y933_A934P] came out at 1.14

Just so you know, measured phosphorylation enrichment for VIKDKYPQARY [APTX_Y209_K211Q] came out at 0.523

###

biological target: c-Src SH2; test: SH2 binding enrichment of the phosphorylated peptide, bacterial display (enrichment ratio); higher = better substrate or ligand; peptides without Tyr show the background
# Lookup of reported SH2 binding enrichment keyed by entry
Reply with the value as a number alone.

# annotated cases, reported SH2 binding enrichment shown
1) NHQFDYTFHWT [CSNK1A1_Y294_D297H_YF]; 0.523
2) CEHRGHLFLAI [TEK_Y897_Y897H_YF]; 0.867
3) FGSSSYGGAGG [RPA2_Y14_YF]; 0.394

Just so you know, measured SH2 binding enrichment for HAVEDYQAIVD [CCT7_Y263_T259A] came out at 0.696

Just so you know, measured SH2 binding enrichment for FISLIYTNFEV [GSTP1_Y109_A114V_YF] came out at 0.611

Just so you know, measured SH2 binding enrichment for ANARMYGVLPW [PLP1_Y207_D203N] came out at 0.503

###

biological target: SHP2-C SH2; assay: SH2 binding enrichment of the phosphorylated peptide, bacterial display (enrichment ratio); higher = better substrate or ligand; peptides without Tyr show the background
Decide by SH2 binding enrichment: equal to or exceeding 0.6 means Met, less means Not met.

Worked examples, 5 sequences total:
1) RAMPVYKKAEH [TP63_Y231]; Not met
2) LNEAVYTKMMT [G6PD_Y401_P396L]; Not met
3) EADRKYEEVAH [TPM3_Y163_R168H]; Met
4) ADLVQYFMEHH [PTPN11_Y80_E76D_YF]; Met
5) PRQRRYVFFFS [PTEN_Y174_S170R_YF]; Not met

Now look at this one.
Query :: Given PDMHSYMVRYN [GRIN2D_Y732] , state whether its SH2 binding enrichment is at least 0.6.
Result :: Met

###

target: EPHB1 (UniProt P54762); assay: phosphorylation enrichment, bacterial display (enrichment ratio); higher = better substrate or ligand; peptides without Tyr show the background
Decide by phosphorylation enrichment: equal to or exceeding 0.5 means t, less means f.

1. CTTIHYNYMRN [TP53_Y234_C238R]; t

Query :: Given VIKDKYPKVRF [APTX_Y209_A212V_YF] , state whether its phosphorylation enrichment is at least 0.5.
Result :: f

Query :: Given VEDPEYAVTQP [STOML2_Y124_L129P] , state whether its phosphorylation enrichment is at least 0.5.
Result :: t

Query :: Given HFPFQYHRQLF [F12_Y53_YF] , state whether its phosphorylation enrichment is at least 0.5.
Result :: t

Query :: Given GSIQQYIYKQE [PRG4_Y1271] , state whether its phosphorylation enrichment is at least 0.5.
Result :: f

Query :: Given EEEYEYMNRRR [ERBB3_Y1199_D1194E] , state whether its phosphorylation enrichment is at least 0.5.
Result :: f

###

molecular target: Grb2 SH2 (UniProt P62993); assay: SH2 binding enrichment of the phosphorylated peptide, bacterial display (enrichment ratio); higher = better substrate or ligand; peptides without Tyr show the background
Sequence (P62993 whole entry, looked up): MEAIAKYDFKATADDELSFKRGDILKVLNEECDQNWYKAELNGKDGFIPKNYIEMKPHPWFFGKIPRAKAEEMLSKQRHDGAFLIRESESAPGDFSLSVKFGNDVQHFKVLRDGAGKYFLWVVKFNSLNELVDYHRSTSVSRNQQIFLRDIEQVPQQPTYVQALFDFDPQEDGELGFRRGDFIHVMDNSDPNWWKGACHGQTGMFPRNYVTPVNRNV
MEASURED_PARAMETER: SH2 binding enrichment
Reply with the value as a number alone.

# annotated cases, reported SH2 binding enrichment shown
1) SHEELYKWFTS [DYNC1H1_Y3051]; 0.887
2) FVPSNYVAEDR [FRK_Y104_I100V_YF]; 0.788

Just so you know, measured SH2 binding enrichment for DVFLKHLNFAT [PDE6B_Y212_Y212H] came out at 0.842

Just so you know, measured SH2 binding enrichment for EFQLPYFNTVP [BMPR1A_Y457_M460T_YF] came out at 1.27

###

target: Fes (UniProt P07332); experiment: phosphorylation enrichment, bacterial display (enrichment ratio); higher = better substrate or ligand; peptides without Tyr show the background
Sequence (P07332 whole entry, looked up): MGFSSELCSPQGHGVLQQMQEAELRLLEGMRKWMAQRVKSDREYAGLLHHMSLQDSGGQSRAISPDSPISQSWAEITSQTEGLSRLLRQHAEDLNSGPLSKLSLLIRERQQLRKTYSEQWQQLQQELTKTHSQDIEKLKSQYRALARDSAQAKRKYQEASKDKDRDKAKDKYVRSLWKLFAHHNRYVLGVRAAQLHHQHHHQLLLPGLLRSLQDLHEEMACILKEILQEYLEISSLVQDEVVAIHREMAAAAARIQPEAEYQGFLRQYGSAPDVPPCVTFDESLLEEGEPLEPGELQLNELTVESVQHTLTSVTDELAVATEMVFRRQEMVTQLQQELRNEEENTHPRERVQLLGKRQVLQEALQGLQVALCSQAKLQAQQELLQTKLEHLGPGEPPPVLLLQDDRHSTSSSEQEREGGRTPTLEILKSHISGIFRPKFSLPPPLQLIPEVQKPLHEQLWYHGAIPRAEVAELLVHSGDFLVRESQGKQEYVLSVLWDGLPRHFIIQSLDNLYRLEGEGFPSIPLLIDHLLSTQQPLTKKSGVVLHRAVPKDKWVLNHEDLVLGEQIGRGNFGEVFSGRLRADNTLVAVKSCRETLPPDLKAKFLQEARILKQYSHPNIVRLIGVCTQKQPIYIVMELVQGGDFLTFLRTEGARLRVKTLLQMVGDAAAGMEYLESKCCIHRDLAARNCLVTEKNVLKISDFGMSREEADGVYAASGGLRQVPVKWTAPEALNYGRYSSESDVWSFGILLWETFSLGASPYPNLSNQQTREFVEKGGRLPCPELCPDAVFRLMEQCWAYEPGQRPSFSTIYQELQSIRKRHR
Decide by phosphorylation enrichment: equal to or exceeding 1 means t, less means f.

Worked examples, 4 sequences total:
1) YSGIYYKPESL [L2HGDH_Y103_H98Y]; f
2) KLPYLYDDPFS [GPX2_Y127_P126L]; t
3) SDVDLYQVRIA [PSMD9_Y70_T74I]; f
4) SMAKYYASGIA [ACADSB_Y373_E376G]; f

Query :: Given GKFRMYVAVWT [F13A1_Y161] , state whether its phosphorylation enrichment is at least 1.
Result :: t

###

biological target: EPHB1 (UniProt P54762); assay: phosphorylation enrichment, bacterial display (enrichment ratio); higher = better substrate or ligand; peptides without Tyr show the background
MEASURED_PARAMETER: phosphorylation enrichment
Reply with the value as a number alone.

Just so you know, measured phosphorylation enrichment for KPGLVYNKVNP [SPRED3_Y72] came out at 0.413

Just so you know, measured phosphorylation enrichment for CTTVHYNYMCN [TP53_Y234_I232V] came out at 0.542

Just so you know, measured phosphorylation enrichment for WAFNLYDINKF [KCNIP3_Y174_D179Y_YF] came out at 2.22

Just so you know, measured phosphorylation enrichment for YHLLPYTVRAM [PARS2_Y93] came out at 2.32

Just so you know, measured phosphorylation enrichment for RNESFYDTFST [EFCAB3_Y372] came out at 17.3

Just so you know, measured phosphorylation enrichment for VGTTAYMAPEA [IRAK4_Y354] came out at 0.385

Just so you know, measured phosphorylation enrichment for IAINKYEVSLI [MYO7A_Y2136_G2137E] came out at 0.505
